- tested.system: Shiga toxin 2 (Escherichia coli O157:H7) (UniProt P09385+P09386)
- assay.protocol: E. coli 0.157:H7 Shiga Toxin SOP - stx2 screening assay
- Type: functional
- Design: scale not given: direction of the effect not stated beside the values
- condition.notes: 30 µM
Record YES whenever Percent Effect is at -20% or higher; record NO when lower.

[[record]]
molecule = "Cn1cc(Br)c(=O)c(NS(=O)(=O)c2ccc(F)cc2)c1"
tested_system = "Shiga toxin 2 (Escherichia coli O157:H7) (UniProt P09385+P09386)"
assigned_class = "YES"

[[record]]
molecule = "CNC(=O)[C@H]1C[C@@H]2CN(C(=O)c3ccco3)C[C@@H]2N1S(C)(=O)=O"
tested_system = "Shiga toxin 2 (Escherichia coli O157:H7) (UniProt P09385+P09386)"
assigned_class = "NO"

[[record]]
molecule = "CCc1cc(O)nc(C2CCCN2C(=O)c2cc(C)no2)n1 (stereo unspecified)"
tested_system = "Shiga toxin 2 (Escherichia coli O157:H7) (UniProt P09385+P09386)"
assigned_class = "YES"

[[record]]
molecule = "COc1ncccc1CNC(=O)NCCNC(=O)c1ccco1"
tested_system = "Shiga toxin 2 (Escherichia coli O157:H7) (UniProt P09385+P09386)"
assigned_class = "NO"

[[record]]
molecule = "COc1ncnc2c1CCN(c1cc(C(F)(F)F)ncn1)CC2"
tested_system = "Shiga toxin 2 (Escherichia coli O157:H7) (UniProt P09385+P09386)"
assigned_class = "YES"

[[record]]
molecule = "Cc1nccnc1CN1CCC2(CCCN(C3CCOCC3)C2=O)C1 (stereo unspecified)"
tested_system = "Shiga toxin 2 (Escherichia coli O157:H7) (UniProt P09385+P09386)"
assigned_class = "NO"

